Data provenance is patent US20080287398A1.

Items are presented alongside their recorded inhibition at 1 µM.
# TARGET OF ASSAY: canine TRPM8 (Canis lupus familiaris)
# Construct: expressed in transfected cells
# RUN DESCRIPTION: In vitro canine TRPM8 functional assay (Ca2+-sensitive dye, FLIPR/FDSS, icilin activation)
# Assay type: cell-based
# STUDY CONDITIONS: HEK293, read-out: % I (1 μM), 1 μM compound; HEK293 cells expressing canine TRPM8, icilin activation
Give a bare numeral; the unit % is implied.

• CC(C)OP(=O)(OC(C)C)C(Cc1ccc(F)c(F)c1)c1sc2ccccc2c1Cl (stereo not drawn) = 100
• CCOP(=O)(OCC)C(Cc1ccc(F)c(F)c1)c1sc2cccc(C(F)(F)F)c2c1C (stereo not drawn) = 97
• CCOP(=O)(OCC)C(Cc1ccc(F)c(F)c1)c1oc2ccccc2c1C (stereo not drawn) = 100
• CCOP(=O)(OCC)C(Cc1cccc(-c2ccncc2)c1)c1sc2ccccc2c1C (stereo not drawn) = 99
• CCOP(=O)(OCC)C(Cc1ccc(F)c(F)c1)C1=C(C)c2ccccc2S1(=O)=O (stereo not drawn) = 80

-- ask Consider the compound shown here: CCOP(=O)(OCC)C(Cc1ccc(F)c(F)c1)c1sc2ccccc2c1Br (stereo not drawn) What is its recorded inhibition at 1 µM?
-- reply 100

-- ask Given the entry CCOP(=O)(OCC)C(Cc1ccc(F)c(F)c1)c1sc2c(F)cccc2c1C (stereo not drawn) , report its measured inhibition at 1 µM.
-- reply 100

-- ask Return reported inhibition at 1 µM; argument: CCOP(=O)(OCC)C(Cc1ccc(F)c(F)c1)c1sc2ccccc2c1-c1cccnc1F (stereo not drawn)
-- reply 100

-- ask Item under review: CCOP(=O)(OCC)C(Cc1ccc(F)c(F)c1)c1sc2cc(F)ccc2c1C (stereo not drawn) . Reported inhibition at 1 µM?
-- reply 100

====

# TARGET OF ASSAY: canine TRPM8 (Canis lupus familiaris, UniProt Q1A7N1)
# Construct: expressed in transfected cells
# Sequence (Q1A7N1 1-1104): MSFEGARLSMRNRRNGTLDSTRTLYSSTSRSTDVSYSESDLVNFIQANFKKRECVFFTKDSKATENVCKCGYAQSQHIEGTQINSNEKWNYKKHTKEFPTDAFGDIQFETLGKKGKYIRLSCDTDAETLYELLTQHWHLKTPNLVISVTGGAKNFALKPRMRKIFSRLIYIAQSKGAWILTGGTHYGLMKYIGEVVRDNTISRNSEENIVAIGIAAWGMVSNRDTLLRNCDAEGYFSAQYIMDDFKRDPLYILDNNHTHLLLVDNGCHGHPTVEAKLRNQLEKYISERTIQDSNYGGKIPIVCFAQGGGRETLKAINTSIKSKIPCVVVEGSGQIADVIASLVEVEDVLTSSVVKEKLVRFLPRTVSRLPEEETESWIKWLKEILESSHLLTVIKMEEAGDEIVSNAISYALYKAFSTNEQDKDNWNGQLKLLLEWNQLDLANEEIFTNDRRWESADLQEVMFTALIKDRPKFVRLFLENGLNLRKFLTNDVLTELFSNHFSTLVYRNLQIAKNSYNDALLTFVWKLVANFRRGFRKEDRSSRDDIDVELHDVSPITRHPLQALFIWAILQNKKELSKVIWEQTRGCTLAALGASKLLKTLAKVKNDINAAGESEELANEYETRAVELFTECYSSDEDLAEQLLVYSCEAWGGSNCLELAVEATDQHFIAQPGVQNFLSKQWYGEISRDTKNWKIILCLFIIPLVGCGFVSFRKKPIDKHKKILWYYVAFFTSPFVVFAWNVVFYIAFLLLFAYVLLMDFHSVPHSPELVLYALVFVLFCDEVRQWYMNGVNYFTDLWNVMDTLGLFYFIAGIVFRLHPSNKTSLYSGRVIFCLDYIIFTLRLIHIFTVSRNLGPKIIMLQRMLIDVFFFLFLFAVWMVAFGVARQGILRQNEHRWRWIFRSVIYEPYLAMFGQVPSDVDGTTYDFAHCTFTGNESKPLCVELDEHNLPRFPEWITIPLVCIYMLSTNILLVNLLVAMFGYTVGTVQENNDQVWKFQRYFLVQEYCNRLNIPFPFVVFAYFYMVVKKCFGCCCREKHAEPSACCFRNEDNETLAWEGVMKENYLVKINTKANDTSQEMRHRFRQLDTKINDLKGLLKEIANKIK
# RUN DESCRIPTION: In vitro canine TRPM8 functional assay (Ca2+-sensitive dye, FLIPR/FDSS, icilin activation)
# Type: cell-based
# STUDY CONDITIONS: 5 μM compound; HEK293 cells expressing canine TRPM8, icilin activation
# Protocol: The functional activity of compounds of Formula (I) was determined by measuring changes in intracellular calcium concentration using a Ca^2+-sensitive fluorescent dye. The changes in fluorescent signal were monitored by a fluorescence plate reader, either a FLIPR™ (Molecular Devices) or FDSS (Hamamatsu). […] Basal FI was subtracted prior to normalizing data to percent of maximal response. […] Finally, the EC50 and IC50 values were calculated with the best-fit dose curve determined by GraphPad Prism.
Each entry below carries its recorded % I (5 μM).

- CCOP(=O)(OCC)C(Cc1ccccc1F)c1csc2ccccc12 (centres unmarked) [Cpd 86]: 101%
- CCOP(=O)(Cc1cc2ccccc2s1)OCc1ccccc1Cl (racemic) [Cpd 105]: 100%
- CCOP(=O)(Cc1cc2ccccc2s1)OCc1ccc(F)cc1 (centres unmarked) [Cpd 107]: 99%
- CCOP(=O)(OCC)C(Cc1ccc(Br)cc1)c1cc2ccccc2s1 (centres unmarked) [Cpd 70]: 99%

Continue with the next compound.
-- ask Form field: reported % I (5 μM) of CCOP(=O)(OCC)C(Cc1ccccc1C)c1cc2ccccc2s1 (centres unmarked) [Cpd 89]
-- reply 100%

====

# TARGET OF ASSAY: canine TRPM8 (Canis lupus familiaris)
# Construct: expressed in transfected cells
# RUN DESCRIPTION: In vitro canine TRPM8 functional assay (Ca2+-sensitive dye, FLIPR/FDSS, icilin activation)
# Assay type: cell-based
# STUDY CONDITIONS: 0.5 μM compound; HEK293 cells expressing canine TRPM8, icilin activation
VALUE TYPE: % I (0.5 μM)
Hey, just the number and the unit after it is fine.

- CC(C)OP(=O)(OC(C)C)C(Cc1ccc(C(F)(F)F)cc1)c1sc2ccccc2c1Cl (centres unmarked) [Cpd 175]: 104%

Query molecule follows.
-- ask Requested field: % I (0.5 μM). Item: CC(C)OP(=O)(OC(C)C)C(Cc1ccc(F)cc1C(F)(F)F)c1sc2ccccc2c1Br (centres unmarked) [Cpd 249]
-- reply 103%

====

A collection of compounds and their measured pIC50
# TARGET OF ASSAY: canine TRPM8 (Canis lupus familiaris, UniProt Q1A7N1)
# Construct: expressed in transfected cells
# RUN DESCRIPTION: In vitro canine TRPM8 functional assay (Ca2+-sensitive dye, FLIPR/FDSS, icilin activation)
# Format: cell-based
# STUDY CONDITIONS: HEK293 cells expressing canine TRPM8, icilin activation; eight-point dose-response; read-out: IC50
A value of pIC50 is the negative decimal logarithm of a concentration given in moles per litre.

Completed entries (count: 3):
* CCOP(=O)(CC(C)C)C(Cc1ccc(F)c(F)c1)c1sc2ccccc2c1C (stereo not shown) [Cpd 36] | 6.90
* CCOP(=O)(OCC)C(Cc1ccc(Cl)c(C(F)(F)F)c1)c1sc2ccccc2c1Cl (racemic) [Cpd 287] | 6.91
* Cc1c(C(Cc2ccc(F)c(F)c2)P(=O)(OC(C)C)OC(C)C)oc2cccc(F)c12 (stereo not shown) [Cpd 202] | 7.28

Let us move to another entry and its pIC50.
-- ask // query pIC50 value for entry CC(C)OP(=O)(OC(C)C)C(Cc1cccc(F)c1)c1sc2ccccc2c1Br (stereo not shown) [Cpd 192]
-- reply 7.42

====

Items are presented alongside their recorded % I (0.5 μM).
# TARGET OF ASSAY: canine TRPM8 (Canis lupus familiaris)
# Construct: expressed in transfected cells
# RUN DESCRIPTION: In vitro canine TRPM8 functional assay (Ca2+-sensitive dye, FLIPR/FDSS, icilin activation)
# Assay type: cell-based
# STUDY CONDITIONS: 0.5 μM compound; HEK293 cells expressing canine TRPM8, icilin activation
Numeric answer only, unit % assumed.

* CCOP(=O)(OCC)C(Cc1ccc(OC(F)(F)F)cc1)c1sc2ccccc2c1Cl (centres unmarked) | 103
* CCOP(=O)(OCC)C(Cc1cccc(C#N)c1)c1sc2ccccc2c1Br (centres unmarked) | 103
* CCOP(=O)(OCC)C(Cc1cc(C(F)(F)F)ccc1F)c1sc2ccccc2c1Br (racemic) | 103
* CSc1ccc(CC(c2sc3ccccc3c2Cl)P(=O)(OC(C)C)OC(C)C)cc1 (centres unmarked) | 103

-- ask API: value(readout= % I (0.5 μM), system= canine TRPM8 (Canis lupus familiaris), query= CCOP(=O)(OCC)C(Cc1ccc(F)c(C(F)(F)F)c1)c1sc2ccccc2c1Cl (racemic) [Cpd 298] )
-- reply 99

-- ask Give canine TRPM8 (Canis lupus familiaris) % I (0.5 μM) for CC(C)OP(=O)(OC(C)C)C(Cc1cc(C(F)(F)F)ccc1F)c1sc2ccccc2c1Cl (racemic)
-- reply 104

-- ask GET /values?readout=% I (0.5 μM)&system=canine TRPM8 (Canis lupus familiaris)&item= CCOP(=O)(OCC)C(Cc1cccc(OC(F)(F)F)c1)c1sc2ccccc2c1Cl (centres unmarked)
-- reply 102

-- ask Find the measured % I (0.5 μM): item CCOP(=O)(OCC)C(Cc1ccc(F)c(F)c1)c1sc2ccccc2c1-c1ccccc1F (racemic) , target or system canine TRPM8 (Canis lupus familiaris).
-- reply 100

====

This section presents molecules with their documented pIC50 values.
# TARGET OF ASSAY: canine TRPM8 (Canis lupus familiaris, UniProt Q1A7N1)
# Construct: expressed in transfected cells
# RUN DESCRIPTION: In vitro canine TRPM8 functional assay (Ca2+-sensitive dye, FLIPR/FDSS, icilin activation)
# Type: cell-based
# STUDY CONDITIONS: HEK293 cells expressing canine TRPM8, icilin activation; eight-point dose-response; read-out: IC50
Friendly reminder that pIC50 comes from taking -log10 of the concentration in mol/L.

Reference set, count: 2
* CCOP(=O)(OCC)C(Cc1cccc(C(F)(F)F)c1Cl)c1sc2ccccc2c1Cl (racemic) [Cpd 280] | 6.64
* CCOP(=O)(OCC)C(Cc1ccccc1O)c1sc2ccccc2c1Br (stereo not drawn) [Cpd 323] | 8.05

-- ask Which pIC50 reading was recorded for the molecule CCOP(=O)(OCC)C(Cc1cc(C(F)(F)F)cc(C(F)(F)F)c1)c1sc2ccccc2c1Cl (racemic) [Cpd 282] ?
-- reply 6.63

-- ask Given CC(C)OP(=O)(OC(C)C)C(Cc1ccc(S(=O)(=O)C(F)(F)F)cc1)c1sc2ccccc2c1Cl (stereo not drawn) [Cpd 264] , state its recorded pIC50.
-- reply 7.54

-- ask If you can, please state the reported pIC50 value of COC(=O)COP(=O)(OCC(=O)OC)C(Cc1ccc(F)c(F)c1)c1sc2ccccc2c1Br (stereo not drawn) [Cpd 212] .
-- reply 6.92

-- ask What value of measured pIC50 is listed for CCOP(=O)(OCC)C(Cc1cc(C(F)(F)F)ccc1Cl)c1sc2ccccc2c1Cl (stereo not drawn) [Cpd 274] ?
-- reply 6.52

-- ask Can you look up the measured pIC50 of CCOP(=O)(OCC)C(Cc1cc(F)cc(C(F)(F)F)c1)c1sc2ccccc2c1Br (stereo not drawn) [Cpd 140] for me?
-- reply 7.25

-- ask Using the record for CC(C)OP(=O)(OC(C)C)C(Cc1cccc(Cl)c1F)c1sc2ccccc2c1Cl (stereo not drawn) [Cpd 185] , report its pIC50.
-- reply 7.15

-- ask Request the reported pIC50 associated with CCOP(=O)(OCC)C(Cc1ccc(C(F)(F)F)cc1)c1cc2ccccc2s1 (stereo not drawn) [Cpd 68]
-- reply 6.47
